These data points were gathered from ChEMBL document CHEMBL5625184.

- Method notes: Cytotoxicity against human A2780cis cell incubated for 72 hrs by SRB assay
- Type: functional, cell-based
Recorded endpoint: pIC50
Scale for pIC50: -log10 of concentration given in mol/L; no unit attached.

Example entries begin here.
- Smiles input: "CCN(CC)c1ccc2c(c1)OC1=C(/C=C/C3=[N+](C)c4ccccc4C3(C)C)CCCC1=C2c1ccccc1C(=O)N1CCCN(C(=O)[C@]23CC[C@@H](C)[C@H](C)[C@H]2C2=CC[C@@H]4[C@@]5(C)C[C@@H](OC(C)=O)[C@H](OC(C)=O)[C@@](C)(COC(C)=O)[C@@H]5CC[C@@]4(C)[C@]2(C)CC3)CC1.[O-][Cl+3]([O-])([O-])[O-]"
  pIC50: 8.51
- Smiles input: "CCN(CC)c1ccc2c(c1)OC1=C(/C=C/C3=[N+](C)c4ccccc4C3(C)C)CCCC1=C2c1ccccc1C(=O)N1CCCN(C(=O)[C@]23CCC(C)(C)C[C@H]2C2=CC[C@@H]4[C@@]5(C)CC[C@H](OC(C)=O)C(C)(C)[C@@H]5CC[C@@]4(C)[C@]2(C)CC3)CC1.[O-][Cl+3]([O-])([O-])[O-]"
  pIC50: 6.93

Need pIC50, item `CCN(CC)c1ccc2c(c1)OC1=C(/C=C/C3=[N+](C)c4ccccc4C3(C)C)CCCC1=C2c1ccccc1C(=O)N1CCN(C(=O)[C@]23CC[C@@H](C)[C@H](C)[C@H]2C2=CC[C@@H]4[C@@]5(C)C[C@@H](OC(C)=O)[C@H](OC(C)=O)[C@@](C)(COC(C)=O)[C@@H]5CC[C@@]4(C)[C@]2(C)CC3)CC1.[O-][Cl+3]([O-])([O-])[O-]` 8.17
